Ref: the supplement of paper PMC9112550

Each record here notes measured shrunken log2 fold change.
system: Escherichia coli TOP10; experiment: shrunken log2 fold change of peptide-encoding DNA abundance (4.5 h post-induction vs induction); higher = less antimicrobial activity (less host growth inhibition); settings: time post-induction: 4.5 h; library: site-saturation at positions 5, 18, 19, 20;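 also: peptides expressed intracellularly from a pBAD plasmid library in pooled LB shake-flask culture, induced with 0.3% L-arabinose, DNA abundance read by NGS, three biological replicates, DESeq2 with apeglm shrinkage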
MEASUREMENT_NAME: shrunken log2 fold change

- MACROMOLECULE_SEQUENCE: "RRIRFRPPRLPRPRPRPHTQPRP"
  REPORTED: -0.225
- MACROMOLECULE_SEQUENCE: "RRIRIRPPRLPRPRPRPIIWPRP"
  REPORTED: -0.167
- MACROMOLECULE_SEQUENCE: "RRIRNRPPRLPRPRPRPSSYPRP"
  REPORTED: -0.388
- MACROMOLECULE_SEQUENCE: "RRIRKRPPRLPRPRPRPRNGPRP"
  REPORTED: 0.157
- MACROMOLECULE_SEQUENCE: "RRIRGRPPRLPRPRPRPLYWPRP"
  REPORTED: -0.169
- MACROMOLECULE_SEQUENCE: "RRIRTRPPRLPRPRPRPPMPPRP"
  REPORTED: 0.144
- MACROMOLECULE_SEQUENCE: "RRIRRRPPRLPRPRPRPFGSPRP"
  REPORTED: -0.0013
- MACROMOLECULE_SEQUENCE: "RRIRVRPPRLPRPRPRPTWQPRP"
  REPORTED: 0.27
- MACROMOLECULE_SEQUENCE: "RRIRDRPPRLPRPRPRPDMLPRP"
  REPORTED: 0.00888
- MACROMOLECULE_SEQUENCE: "RRIRWRPPRLPRPRPRPITWPRP"
  REPORTED: 0.0636
- MACROMOLECULE_SEQUENCE: "RRIRNRPPRLPRPRPRPYCHPRP"
  REPORTED: -0.72
- MACROMOLECULE_SEQUENCE: "RRIRARPPRLPRPRPRPNIGPRP"
  REPORTED: -0.0734
- MACROMOLECULE_SEQUENCE: "RRIRQRPPRLPRPRPRPITPPRP"
  REPORTED: -0.0347
- MACROMOLECULE_SEQUENCE: "RRIRIRPPRLPRPRPRPIRRPRP"
  REPORTED: 0.00942
- MACROMOLECULE_SEQUENCE: "RRIRYRPPRLPRPRPRPYMKPRP"
  REPORTED: -0.122
- MACROMOLECULE_SEQUENCE: "RRIRFRPPRLPRPRPRPGTKPRP"
  REPORTED: 0.478
- MACROMOLECULE_SEQUENCE: "RRIRCRPPRLPRPRPRPADQPRP"
  REPORTED: -0.0916
- MACROMOLECULE_SEQUENCE: "RRIRTRPPRLPRPRPRPEMSPRP"
  REPORTED: -0.145
- MACROMOLECULE_SEQUENCE: "RRIRLRPPRLPRPRPRPSMPPRP"
  REPORTED: -0.4
- MACROMOLECULE_SEQUENCE: "RRIRRRPPRLPRPRPRPLGIPRP"
  REPORTED: 0.984
- MACROMOLECULE_SEQUENCE: "RRIRFRPPRLPRPRPRPGFSPRP"
  REPORTED: -0.407
- MACROMOLECULE_SEQUENCE: "RRIRVRPPRLPRPRPRPPVFPRP"
  REPORTED: 0.00719
- MACROMOLECULE_SEQUENCE: "RRIRHRPPRLPRPRPRPHKFPRP"
  REPORTED: -0.636
- MACROMOLECULE_SEQUENCE: "RRIRGRPPRLPRPRPRPALIPRP"
  REPORTED: 0.737
- MACROMOLECULE_SEQUENCE: "RRIRDRPPRLPRPRPRPYWCPRP"
  REPORTED: 0.0158
- MACROMOLECULE_SEQUENCE: "RRIRHRPPRLPRPRPRPDWGPRP"
  REPORTED: 0.0592
- MACROMOLECULE_SEQUENCE: "RRIRYRPPRLPRPRPRPRTMPRP"
  REPORTED: -1.72
- MACROMOLECULE_SEQUENCE: "RRIRRRPPRLPRPRPRPWVFPRP"
  REPORTED: -0.106
- MACROMOLECULE_SEQUENCE: "RRIRCRPPRLPRPRPRPQNRPRP"
  REPORTED: -0.111
- MACROMOLECULE_SEQUENCE: "RRIRYRPPRLPRPRPRPCTCPRP"
  REPORTED: 0.0744
- MACROMOLECULE_SEQUENCE: "RRIRPRPPRLPRPRPRPAQYPRP"
  REPORTED: 0.0469
- MACROMOLECULE_SEQUENCE: "RRIRRRPPRLPRPRPRPMPDPRP"
  REPORTED: 0.442
- MACROMOLECULE_SEQUENCE: "RRIRTRPPRLPRPRPRPKWSPRP"
  REPORTED: -0.227
- MACROMOLECULE_SEQUENCE: "RRIRPRPPRLPRPRPRPCEIPRP"
  REPORTED: 0.0471
- MACROMOLECULE_SEQUENCE: "RRIRERPPRLPRPRPRPKVNPRP"
  REPORTED: -0.389
- MACROMOLECULE_SEQUENCE: "RRIRPRPPRLPRPRPRPPNHPRP"
  REPORTED: 0.0555
- MACROMOLECULE_SEQUENCE: "RRIRRRPPRLPRPRPRPVRPPRP"
  REPORTED: 0.512
- MACROMOLECULE_SEQUENCE: "RRIRSRPPRLPRPRPRPTTSPRP"
  REPORTED: 0.094
- MACROMOLECULE_SEQUENCE: "RRIRVRPPRLPRPRPRPETLPRP"
  REPORTED: -0.223
- MACROMOLECULE_SEQUENCE: "RRIRARPPRLPRPRPRPKCCPRP"
  REPORTED: 0.165
- MACROMOLECULE_SEQUENCE: "RRIRTRPPRLPRPRPRPELSPRP"
  REPORTED: -0.0448
- MACROMOLECULE_SEQUENCE: "RRIRIRPPRLPRPRPRPYKWPRP"
  REPORTED: -0.424
- MACROMOLECULE_SEQUENCE: "RRIRYRPPRLPRPRPRPGSMPRP"
  REPORTED: -0.182
- MACROMOLECULE_SEQUENCE: "RRIRCRPPRLPRPRPRPAILPRP"
  REPORTED: -0.659
- MACROMOLECULE_SEQUENCE: "RRIRRRPPRLPRPRPRPLWQPRP"
  REPORTED: 0.318
- MACROMOLECULE_SEQUENCE: "RRIRMRPPRLPRPRPRPHDKPRP"
  REPORTED: 0.0701
- MACROMOLECULE_SEQUENCE: "RRIRTRPPRLPRPRPRPHRDPRP"
  REPORTED: 0.129
- MACROMOLECULE_SEQUENCE: "RRIRIRPPRLPRPRPRPQCKPRP"
  REPORTED: -0.532
- MACROMOLECULE_SEQUENCE: "RRIRYRPPRLPRPRPRPNSWPRP"
  REPORTED: -0.0916
- MACROMOLECULE_SEQUENCE: "RRIRNRPPRLPRPRPRPIDDPRP"
  REPORTED: 0.00709
- MACROMOLECULE_SEQUENCE: "RRIRPRPPRLPRPRPRPDGTPRP"
  REPORTED: -0.122
- MACROMOLECULE_SEQUENCE: "RRIRWRPPRLPRPRPRPYAIPRP"
  REPORTED: -0.347
- MACROMOLECULE_SEQUENCE: "RRIRLRPPRLPRPRPRPKVVPRP"
  REPORTED: -0.0761
- MACROMOLECULE_SEQUENCE: "RRIRMRPPRLPRPRPRPITDPRP"
  REPORTED: -0.667
- MACROMOLECULE_SEQUENCE: "RRIRYRPPRLPRPRPRPKRAPRP"
  REPORTED: 0.28
- MACROMOLECULE_SEQUENCE: "RRIRVRPPRLPRPRPRPENTPRP"
  REPORTED: -0.0389
- MACROMOLECULE_SEQUENCE: "RRIRIRPPRLPRPRPRPLTIPRP"
  REPORTED: -0.536
- MACROMOLECULE_SEQUENCE: "RRIRFRPPRLPRPRPRPCQTPRP"
  REPORTED: -0.414
- MACROMOLECULE_SEQUENCE: "RRIRRRPPRLPRPRPRPQSRPRP"
  REPORTED: 0.00841
- MACROMOLECULE_SEQUENCE: "RRIRGRPPRLPRPRPRPITPPRP"
  REPORTED: -0.0185
- MACROMOLECULE_SEQUENCE: "RRIRDRPPRLPRPRPRPECNPRP"
  REPORTED: 0.741
- MACROMOLECULE_SEQUENCE: "RRIRVRPPRLPRPRPRPNPIPRP"
  REPORTED: 0.129
- MACROMOLECULE_SEQUENCE: "RRIRTRPPRLPRPRPRPAAFPRP"
  REPORTED: -0.128
